Tested on: A549/ATCC NSCLC
method_summary: NCI-60 one-dose screen, 48 h (100 = growth as untreated, 0 = no growth, -100 = all killed)
condition_label: 10 µM unless noted
About 83,000 compounds went through this panel and 20% of them were active in at least one assay; those are over-represented in the sample as a whole.
endpoint: growth (%)
Form entry: value (%) — number only.

Please state recorded growth (tested on A549/ATCC NSCLC) of C=C(CNCCc1ccc(O)cc1)[C@@H]1CC[C@]2(CO)CC[C@]3(C)[C@H](CC[C@@H]4[C@@]5(C)CCC(NCCc6ccc(O)cc6)C(C)(C)[C@@H]5CC[C@]43C)[C@@H]12 (some centres undefined) -82.4

Identify the measured growth of `COC(=O)[C@H]1Cc2c([nH]c3ccccc23)[C@@H](c2cccs2)N1` for A549/ATCC NSCLC. 103

# returns recorded growth (system: A549/ATCC NSCLC) for `Cn1cc(-c2nc3c(F)cc4[nH]ncc4c3c3c2CCCC3)c(C(F)F)n1` 58.1

Query growth on A549/ATCC NSCLC for `O=C(Nc1ccc2ncsc2c1)c1csc(Nc2ccc3[nH]ncc3c2)n1` 44.3

Reported growth for A549/ATCC NSCLC, given CN1CCCc2cc(/C=C3\SC(=S)N(C(Cc4ccc(O)cc4)C(=O)O)C3=O)ccc21 (centres undefined) ? 105

For the record `COc1cc(CO)cc2cc3ccccc3nc12` , what value of growth is listed for A549/ATCC NSCLC? 104

Reported growth for A549/ATCC NSCLC, given `COc1ccc(CCNC(=O)COc2cc3c(Nc4ccc(F)c(Cl)c4)ncnc3cc2OC)cc1OC` ? 84.8

Request - read-out growth | tested on A549/ATCC NSCLC | compound CCN1C(=O)N(c2ccccc2)C2NC(=S)N(/N=C/C=C/c3ccccc3)C21 (centres undefined) 24.9

Missing value: growth, A549/ATCC NSCLC, entry `[Cu+].[NH-][C@H]1C[N-]C(=O)[C@H]([C@H]2CCN=C(N)N2)[N-]C(=O)/C(=C\NC(N)=O)[N-]C(=O)[C@H](CNC(=O)C[C@@H](N)CCCN)[N-]C(=O)[C@H](CO)[N-]C1=O` . Fill in? 99.3

Give recorded growth with A549/ATCC NSCLC for the following compound: `COc1ccc(-c2[nH]c3ccccc3c2-c2ccc(OC)cc2)cc1` 75.7

Missing value: growth, A549/ATCC NSCLC, entry CCCCC1COc2cccc3c2N1C=C/C3=C\C(=O)N(C)c1cccc(Cl)c1 (centres undefined) . Fill in? 99.5

Query the reported growth for A549/ATCC NSCLC; item: `CCOc1nc(-c2ccccc2)cc2c(O)c(C(=O)N/N=C/c3ccc(N(C)C)cc3)[nH]c(=O)c12` 107

Please state recorded growth (tested on A549/ATCC NSCLC) of `O=C(NCc1cccnc1)/C(=C\c1ccc(Br)cc1)S(=O)(=O)c1ccccc1` -3.53

Tell me reported growth for `COC1=CC(=O)C(OC)=C(O)C1=O` , tested with A549/ATCC NSCLC. 105

Observed growth on A549/ATCC NSCLC for `CN(C)C1CCN(C(=O)c2ccc(NC(=O)Nc3ccc(-c4nc(N5CCOCC5)c5cccn5n4)cc3)cc2)CC1` , please. 3.9

A549/ATCC NSCLC / growth / COC(=O)c1[nH]nc(OC)c1C1(C(C#N)c2nc3ccccc3s2)CCCc2ccccc21 (centres undefined) : value? 96.2

// lookup growth | system=A549/ATCC NSCLC | key= `O=C(c1ccc(Nc2nccc(NCCCNc3ccnc4cc(Cl)ccc34)n2)cc1)N1CCCCC1` 19.1

Any idea what growth came out for CCOC(=O)c1cnn(CC(O)CC)c1NC(=O)NCc1ccccc1C(F)(F)F (centres undefined) on A549/ATCC NSCLC? 94.9

State its growth on A549/ATCC NSCLC: `CCCCCCCCCCCCCCCCCCn1cc(COc2ccc(C=O)cc2)nn1` 91.2
